- Assayed Target: UniProt O15392
- Sequence (O15392 whole entry): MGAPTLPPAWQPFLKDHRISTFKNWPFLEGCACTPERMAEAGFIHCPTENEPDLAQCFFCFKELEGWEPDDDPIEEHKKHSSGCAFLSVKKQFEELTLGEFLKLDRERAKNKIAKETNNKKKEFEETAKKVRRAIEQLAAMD
Measured Attribute: Kd (µM)
Provide only the numeric value, understood in µM.

Please give the measured Kd for this molecule: N#Cc1c(-c2ccccc2)cc(-c2cc(Br)ccc2O)[nH]c1=O 5.7

###

- Assayed Target: cGMP-inhibited 3',5'-cyclic phosphodiesterase 3A (Homo sapiens, UniProt Q14432)
- Sequence (Q14432 whole entry): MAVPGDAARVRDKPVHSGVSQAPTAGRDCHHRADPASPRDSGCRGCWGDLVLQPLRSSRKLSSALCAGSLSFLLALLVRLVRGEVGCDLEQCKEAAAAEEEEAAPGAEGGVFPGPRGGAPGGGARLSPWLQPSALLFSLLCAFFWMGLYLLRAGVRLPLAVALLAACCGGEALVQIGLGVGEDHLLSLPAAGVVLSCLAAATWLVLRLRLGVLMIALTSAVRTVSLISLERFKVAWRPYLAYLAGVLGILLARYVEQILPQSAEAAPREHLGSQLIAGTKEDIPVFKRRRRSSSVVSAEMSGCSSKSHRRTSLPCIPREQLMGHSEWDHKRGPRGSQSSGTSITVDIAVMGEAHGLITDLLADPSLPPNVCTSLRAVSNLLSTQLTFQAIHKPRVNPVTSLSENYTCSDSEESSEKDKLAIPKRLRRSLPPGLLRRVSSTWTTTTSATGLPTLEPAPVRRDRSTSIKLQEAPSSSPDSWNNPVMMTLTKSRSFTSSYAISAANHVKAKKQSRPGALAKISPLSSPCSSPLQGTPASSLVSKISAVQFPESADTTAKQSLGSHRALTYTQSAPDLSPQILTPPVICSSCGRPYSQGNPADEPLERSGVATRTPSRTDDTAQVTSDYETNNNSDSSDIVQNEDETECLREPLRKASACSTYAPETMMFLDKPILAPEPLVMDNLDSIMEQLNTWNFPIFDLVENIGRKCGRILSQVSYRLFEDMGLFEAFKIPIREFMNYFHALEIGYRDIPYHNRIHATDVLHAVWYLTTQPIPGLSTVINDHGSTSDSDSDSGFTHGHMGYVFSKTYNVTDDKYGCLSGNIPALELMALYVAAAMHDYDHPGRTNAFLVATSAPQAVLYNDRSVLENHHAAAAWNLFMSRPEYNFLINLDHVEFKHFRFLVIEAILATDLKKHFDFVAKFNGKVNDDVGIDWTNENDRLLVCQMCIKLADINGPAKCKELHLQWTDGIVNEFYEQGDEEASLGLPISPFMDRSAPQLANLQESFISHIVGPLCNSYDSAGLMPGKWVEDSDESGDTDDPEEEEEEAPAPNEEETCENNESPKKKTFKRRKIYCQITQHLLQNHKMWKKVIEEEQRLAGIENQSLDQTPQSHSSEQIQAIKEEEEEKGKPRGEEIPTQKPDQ
- Assay Procedure: Inhibition of human recombinant PDE3A at 50 uM by fluorescence polarization assay using cAMP as substrate
Measured Attribute: inhibition (%)
Provide only the numeric value, understood in %.

Example entries and their recorded answers appear below.
Smiles Notation: COc1ccccc1-c1cc(-c2ccsc2)[nH]c(=N)c1C#N
inhibition, %: 47
--
Smiles Notation: CCOc1ccc(-c2cc(-c3ccsc3)[nH]c(=N)c2C#N)cc1
inhibition, %: 55
--
Smiles Notation: N#Cc1c(-c2ccccc2O)cc(-c2cccc(Br)c2)[nH]c1=O
inhibition, %: 20
--
Smiles Notation: COc1ccc(-c2cc(-c3ccsc3)[nH]c(=O)c2C#N)cc1
inhibition, %: 8
--
Smiles Notation: N#Cc1c(-c2ccccc2O)cc(-c2ccccc2Br)[nH]c1=O
inhibition, %: 34

Lab note: next compound to report on.
API: value(readout=inhibition, system=cGMP-inhibited 3',5'-cyclic phosphodiesterase 3A (Homo sapiens, UniProt Q14432)) for record N#Cc1c(-c2ccsc2)cc(-c2ccccc2)[nH]c1=N 4

###

- Assayed Target: cGMP-inhibited 3',5'-cyclic phosphodiesterase 3A (Homo sapiens)
- Assay Procedure: Inhibition of human recombinant PDE3A at 50 uM by fluorescence polarization assay using cGMP as substrate
Decide using inhibition: a value greater than or equal to 40% is fulfilled, a smaller one is not fulfilled.

Previously resolved entries follow.
Smiles Notation: N#Cc1c(-c2ccc(Cl)cc2)cc(-c2ccsc2)[nH]c1=O
Assayed Target: cGMP-inhibited 3',5'-cyclic phosphodiesterase 3A (Homo sapiens)
Class Label: not fulfilled
//
Smiles Notation: N#Cc1c(-c2ccccc2O)cc(-c2ccccc2Br)[nH]c1=O
Assayed Target: cGMP-inhibited 3',5'-cyclic phosphodiesterase 3A (Homo sapiens)
Class Label: fulfilled
//
Smiles Notation: COc1ccc(-c2cc(-c3ccsc3)[nH]c(=N)c2C#N)cc1
Assayed Target: cGMP-inhibited 3',5'-cyclic phosphodiesterase 3A (Homo sapiens)
Class Label: not fulfilled
//
Smiles Notation: N#Cc1c(-c2ccsc2)cc(-c2ccccc2)[nH]c1=N
Assayed Target: cGMP-inhibited 3',5'-cyclic phosphodiesterase 3A (Homo sapiens)
Class Label: not fulfilled

Quick check, inhibition >= 40%? N#Cc1c(-c2ccccc2Cl)cc(-c2ccc(Br)cc2)[nH]c1=N fulfilled
